System: K4 kissing-loop RNA reporter;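 further: bound reporter read as fluorescence of individual clusters on recovered sequencing chips by microscopy, with normalized cluster intensities fitted with a binding model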
protocol summary: apparent KD of K4 kissing-loop reporter; higher = weaker reporter binding
experimental context: Eterna round: R107; input ligand: arginine 13.2 mM
Attribute: apparent KD of K4 kissing-loop reporter
// units = nM; emit number, no label

AUCGUUGUCUGAGGAUAUCGUUUAACUGUAGUGAUGUUACAGAAAAUUCAUAUUAUAUUUUCUAUUCGAGAAGGCAGACUACGUA [JR_ExcFMNB_Sub016]: 133
UAAUAUAAUCUGUCGUUUACAAUAUUUAGUCAGGAUAUCGUAUAUUCGAGAAGGGACACUAUCUAGUGAUGUUAGAUAUUUCUUU [JR_ExcFMNA_Sub014]: 78.1
GCCGUAGAUGGAAGGAGCGUGGUGGACUCGUGAAGUGAUGUUUCAAGUCGUUAUGCCCAACCACAGGUAGGUCGCCAUCUACGGC: 204

Task: Return apparent KD of K4 kissing-loop reporter for the following sequence: AGUGAUGUGGGAAGGAGCGGUAGAUGAGUUCAGUGAUGUUGAAGUGAUGCUGUAGUGAUGUGCCAGGUAGGUCGCCUAGAUGUUA [KL-XARG B24]
Result: 162

Task: Return apparent KD of K4 kissing-loop reporter for the following sequence: CGAAAUAGAACGGCCGCCACUGUAAGUCCUGACAGUAAGUGAUGUUUGAAAGAUUCGGGUAUUCGCAGGACCGGGUUCGUCAUAA [theeternabot_sameState_KL_Trp_B_13]
Result: 844

Task: Return apparent KD of K4 kissing-loop reporter for the following sequence: UCGAUGGCCAGCGAUACCAGCCCAGUGAUGUUGGGCACAUGGUUGCGGGAAAUCCCAUUGGGCCCUUGGCAGCGCUUGCAUGGGU [Dizaisa]
Result: 121
